In this section, each of the binders is paired with its reported binding (fold over iso).
# TARGET: T1, human LILRA3 (human, UniProt Q8N6C8 24-439)
# T1 construct: Over-expressed on CHO-s cells; also called hLILRA3
# T1 sequence (Q8N6C8 24-439 limits assumed): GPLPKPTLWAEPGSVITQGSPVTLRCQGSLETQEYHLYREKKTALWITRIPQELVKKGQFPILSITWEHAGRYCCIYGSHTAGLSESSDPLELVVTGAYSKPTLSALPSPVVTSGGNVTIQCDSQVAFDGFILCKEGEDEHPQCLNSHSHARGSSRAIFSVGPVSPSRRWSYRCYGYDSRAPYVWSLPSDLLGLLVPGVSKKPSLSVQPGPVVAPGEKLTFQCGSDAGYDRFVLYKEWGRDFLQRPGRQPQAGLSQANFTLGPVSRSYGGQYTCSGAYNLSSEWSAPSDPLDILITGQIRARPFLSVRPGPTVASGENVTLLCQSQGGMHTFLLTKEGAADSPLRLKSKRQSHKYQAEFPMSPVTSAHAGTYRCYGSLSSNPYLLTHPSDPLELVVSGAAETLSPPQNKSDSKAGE
# ASSAY METHOD TEXT: flow cytometry, LILRA3 CHOs
# output: numeric value plus its unit

// below: answered binders
J-19.h4 (antibody, human IgG4 S228P, kappa, V domains shown, Humanized, human IgG4 backbone) VH: QVTLKESGPALVKPTHTLTLTCTFSGFSLNTYAMGVSWIRQPPGKALEWLASIWWNGNKYNNPSLKSRLTISKDTSKNQVVLTMTNMDPEDTATFYCAHSRIIRFTDYVMDAWGRGTTVTVSS VL: DIVMTQSPSSLSASVGDTVTITCRASEDIYNDLAWYQQKPGKAPQLLLYNANSLHTGVPSRFSGSGSGTDYTLTISTLQPEDFATYYCQQYYDYPLTFGPGTKVHIKR : 0.99 fold over iso
J-19.h2 (antibody, human IgG4 S228P, kappa, V domains shown, Humanized, human IgG4 backbone) VH: QITLKESGPTLVKPTQTLTLTCTFSGFSLNTYAMGVSWIRQPPGKALEWLASIWWNGNKYNNPSLKSRLTVTKDTSKNQVVLTMTNMDPVDTATYYCAHSRIIRFTDYVMDAWGQGTLVTVSS VL: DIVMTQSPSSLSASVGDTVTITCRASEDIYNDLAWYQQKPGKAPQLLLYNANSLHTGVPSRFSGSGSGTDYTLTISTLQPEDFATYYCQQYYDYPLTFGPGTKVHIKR : 0.83 fold over iso
J-19.h3 (antibody, human IgG4 S228P, kappa, V domains shown, Humanized, human IgG4 backbone) VH: QVTLKESGPSLVKPTQTLTLTCTFSGFSLNTYAMGVSWIRQPPGKALEWLASIWWNGNKYNNPSLKSRLTITKDTSKNQVVLKVTNMDPADTATYYCAHSRIIRFTDYVMDAWGQGTTVTVSS VL: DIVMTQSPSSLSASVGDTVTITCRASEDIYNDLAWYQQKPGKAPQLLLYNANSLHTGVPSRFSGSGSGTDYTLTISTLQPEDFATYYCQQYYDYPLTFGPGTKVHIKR : 0.92 fold over iso

Asked: Tell me binding (fold over iso) reported for J-19.h1 (antibody, human IgG4 S228P, kappa, V domains shown, Humanized, human IgG4 backbone) VH: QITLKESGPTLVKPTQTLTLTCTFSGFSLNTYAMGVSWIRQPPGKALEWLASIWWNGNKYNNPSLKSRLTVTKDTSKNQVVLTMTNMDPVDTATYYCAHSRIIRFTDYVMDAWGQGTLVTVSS VL: DIQMTQSPSSLSTSVGDRVTITCRASEDIYNDLAWYQQKPGKAPKLLIYNANSLHTGVASRFSGSGSGTDFTFTISSLQPEDVATYFCQQYYDYPLTFGQGTKLEIKR
Given back: 0.97 fold over iso
